# Study system: hERG channel (Homo sapiens (Human))
# Sequence (Q12809 whole entry): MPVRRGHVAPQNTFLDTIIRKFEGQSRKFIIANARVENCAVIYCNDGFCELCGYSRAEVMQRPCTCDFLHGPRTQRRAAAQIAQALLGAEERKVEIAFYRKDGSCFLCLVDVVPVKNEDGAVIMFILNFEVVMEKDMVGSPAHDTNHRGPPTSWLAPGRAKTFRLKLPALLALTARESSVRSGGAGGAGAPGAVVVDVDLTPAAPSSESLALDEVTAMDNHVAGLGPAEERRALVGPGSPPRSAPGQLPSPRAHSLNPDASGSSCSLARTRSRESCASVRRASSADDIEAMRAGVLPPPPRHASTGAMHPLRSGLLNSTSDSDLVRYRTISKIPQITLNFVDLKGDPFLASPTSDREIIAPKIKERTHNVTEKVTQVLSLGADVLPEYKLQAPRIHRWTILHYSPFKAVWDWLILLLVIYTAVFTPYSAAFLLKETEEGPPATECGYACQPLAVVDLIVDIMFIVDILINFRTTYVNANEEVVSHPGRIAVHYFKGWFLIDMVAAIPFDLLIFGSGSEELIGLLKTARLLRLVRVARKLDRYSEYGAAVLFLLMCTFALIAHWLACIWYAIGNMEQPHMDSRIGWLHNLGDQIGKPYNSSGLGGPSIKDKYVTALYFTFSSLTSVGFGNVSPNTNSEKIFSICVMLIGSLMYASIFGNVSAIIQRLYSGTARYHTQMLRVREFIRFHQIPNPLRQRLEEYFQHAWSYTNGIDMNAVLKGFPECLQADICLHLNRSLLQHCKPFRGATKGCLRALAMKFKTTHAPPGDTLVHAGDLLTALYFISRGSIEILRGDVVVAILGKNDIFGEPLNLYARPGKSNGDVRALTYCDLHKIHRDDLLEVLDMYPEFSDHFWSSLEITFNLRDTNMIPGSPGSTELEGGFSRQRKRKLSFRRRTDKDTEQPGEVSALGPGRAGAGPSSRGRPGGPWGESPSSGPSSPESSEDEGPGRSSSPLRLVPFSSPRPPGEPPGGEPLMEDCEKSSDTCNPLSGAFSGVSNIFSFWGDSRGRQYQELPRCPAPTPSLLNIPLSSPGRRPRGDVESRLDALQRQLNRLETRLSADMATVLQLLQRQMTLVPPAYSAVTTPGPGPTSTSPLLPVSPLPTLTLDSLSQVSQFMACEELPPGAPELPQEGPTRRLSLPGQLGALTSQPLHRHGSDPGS
# Experimental protocol: hERG channel inhibition, whole cell patch clamp in HEK293 cells
# Format: cell-based
# Condition info: Table 1.3B
Observation type: IC50 (µM)
Use µM as the unit, but write only the number.

Field: example entries. Status: answers known.
{"Compound": "O=C(OCc1ccc(F)cc1)N1CC[C@H](CNc2ncccn2)C(F)(F)C1 [E1-22.4^B′, methanesulfonate]", "Study system": "hERG channel (Homo sapiens (Human))", "Scale unit": "µM", "IC50": 39}
{"Compound": "Cc1ccc(COC(=O)N2CC[C@H](CNc3nccn4cnnc34)C(F)(F)C2)cc1 [E1-1.2^B′]", "Study system": "hERG channel (Homo sapiens (Human))", "Scale unit": "µM", "IC50": 40}
{"Compound": "Cc1ccc(COC(=O)N2CC[C@H](CNc3ccncc3)C(F)(F)C2)cc1 [E1-38.2^B′, methanesulfonate]", "Study system": "hERG channel (Homo sapiens (Human))", "Scale unit": "µM", "IC50": 2.9}

Endpoint output: IC50 of CCc1ccc(COC(=O)N2CC[C@H](CNc3ncccn3)C(F)(F)C2)cc1 [E1-22.5^B′, methanesulfonate] . Value?
9.2
